Target: IRAK4 (Homo sapiens)
Construct: endogenous in cells; host or cells: Karpas299
Sequence (Q9NWZ3 whole entry): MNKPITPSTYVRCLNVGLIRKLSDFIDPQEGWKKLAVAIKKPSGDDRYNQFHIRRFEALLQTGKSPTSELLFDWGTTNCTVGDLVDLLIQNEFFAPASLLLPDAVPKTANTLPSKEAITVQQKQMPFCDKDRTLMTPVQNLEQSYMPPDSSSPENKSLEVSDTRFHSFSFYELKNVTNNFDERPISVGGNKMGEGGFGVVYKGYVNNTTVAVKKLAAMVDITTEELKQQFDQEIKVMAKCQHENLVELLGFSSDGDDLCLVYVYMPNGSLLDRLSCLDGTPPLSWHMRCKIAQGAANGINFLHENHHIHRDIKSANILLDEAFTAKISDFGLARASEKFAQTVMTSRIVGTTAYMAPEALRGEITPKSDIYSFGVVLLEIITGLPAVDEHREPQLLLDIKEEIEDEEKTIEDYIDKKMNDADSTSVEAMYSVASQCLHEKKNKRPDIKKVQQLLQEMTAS
Test: IRAK4 Degradation Assay (Karpas299, HTRF/TR-FRET)
Format: cell-based
Conditions: Karpas-299 cells, 24 h treatment; read-out: IRAK4 in Karpas-299 (24 h) DC50
Listed molecules paired with reported DC50
Number plus unit, in that order.

input: Could you share which DC50 value was measured for COc1cc2nn([C@H]3CC[C@H](CN4CCN(C(=O)C5CCN(c6ccc(N7CCC(=O)NC7=O)cc6)CC5)CC4)CC3)cc2cc1NC(=O)c1cccc(C(F)(F)F)n1 [Example 7] ?
output: 137 nM

input: Same read-out for O=C1CCN(c2ccc(N3CC(C(=O)N4CCN([C@H]5CC[C@H](n6cc(NC(=O)c7coc(-c8ccnc(NCC9CC9)c8)n7)c(C(F)F)n6)CC5)CC4)C3)cc2)C(=O)N1 [Example 24] ?
output: 2.8 nM

input: Subsequent entry: CC(C)(O)c1cc2nn([C@H]3CC[C@H](N4CCN([C@H]5C[C@H](c6cc(F)c([C@H]7CCC(=O)NC7=O)c(F)c6)C5)CC4)CC3)cc2cc1NC(=O)c1ccc2cc(C#N)cnn12 [Example 364]
output: 1.3 nM

Data origin: patent US20250195513A1
